Form field: TGI (one value per entry).
system: MOLT-4 leukemia; test: NCI tumour cell line growth inhibition, 48 h

Worked set:
[[record]]
compound = "Nc1cc(=O)n(-c2ccccc2)c(=S)n1-c1ccccc1"
experimental_readout = "TGI"
result = "> 100 µM"

[[record]]
compound = "C[N+](C)(C)CC(=O)N/N=C/c1ccncc1"
experimental_readout = "TGI"
result = "> 100 µM"


Dear colleague, I am looking for the recorded TGI of the following compound: c1ccc2c(c1)NC1(N3CCCCC3)CCCCC21 (stereo not given)
85.1 µM

Now try `O=C(Nc1ccc(/C=C/c2ccc(NC(=O)c3cc(S(=O)(=O)O)c4cccnc4c3O)cc2S(=O)(=O)O)c(S(=O)(=O)O)c1)c1cc(S(=O)(=O)O)c2cccnc2c1O` .
> 28.7 µM

Now try CCN(CC)C1CCC(Nc2c(C(C)=O)cnc3ccc(-c4ccc(O)c(Cl)c4)cc23)CC1 (stereo not given) .
1.18 µM
